Recorded values, source PubChem BioAssay (NCI).

Test system: HL-60(TB) leukemia
assay_name: NCI tumour cell line growth inhibition, 48 h
readout_type: TGI

Consider the following illustrative entries.
compound | readout_type | readout_value
N#CC(C(=O)/C(=N\NC(N)=O)C(C#N)c1ccc(Cl)cc1)c1ccc(Cl)cc1 (centres undefined) | TGI | > 100 µM
Cc1c(O)nc(-n2[nH]c3c(c2=O)CCCC3)[nH]c1=O | TGI | > 100 µM
Cc1c(N(C)C)ccc2c(=O)c3cccc(CC(=O)O)c3oc12 | TGI | > 100 µM

Record O=C(O)C(Cl)(Cl)Cl . Reported TGI: > 100 µM

* * *

Tested on: A498 renal
assay_name: NCI tumour cell line growth inhibition, 48 h
# TGI per record follows

compound | readout_type | readout_value
CCOC(=O)C1S/C(=N\C(=N)N[N+](=O)[O-])N=C1C (stereo unspecified) | TGI | > 100 µM
COC(=O)/C(C#N)=C1\N=NNN1c1ccc(OC)cc1 | TGI | > 100 µM
CC1(C)CC(=O)C(C(CC(c2ccccc2)c2cc3c(cc2O)OCO3)C2=C(O)CC(C)(C)CC2=O)=C(O)C1 (stereo unspecified) | TGI | > 10 µM
N#Cc1nn(-c2cc(=O)[nH]c3ccc(Cl)cc23)c(N)c1C#N | TGI | > 100 µM
Cc1c2cc[n+](C)c(C)c2cc2c1[nH]c1ccccc12 | TGI | > 100 µM

Record CCOC(=O)c1c(-c2ccc(O)c(OC)c2)c(C#N)c(=S)n(C2OC(CO)C(O)C(O)C2O)c1-c1ccccc1 (stereo unspecified) . Reported TGI: > 100 µM

Record COc1cc(OC)cc(C(=O)CC(=O)c2cc(OC)cc(OC)c2)c1 . Reported TGI: > 100 µM

Record CC1(C)[C@@H]2CC[C@@]1(C)CN(CCC[N+](C)(C)C)C2 . Reported TGI: > 100 µM
